# assay-protocol: Static bioassay, lethal concentration to cutthroat trout
# Type: in vivo, S. clarki
# condition-details: cutthroat trout, water, 10 C; 96 h
quantity-kind: LC50 at 96 h
Be sure to follow the number with its unit.

Problem: I'd like to know its LC50 at 96 h. The compound in question is CCOP(=O)(OCC)OC(Cl)C(Cl)(Cl)Cl (stereo not shown)
Solution: 0.019 mg/L

----------
# assay-protocol: Static bioassay, lethal concentration to sockeye salmon
# Format: in vivo, O. nerka
# condition-details: sockeye salmon, in vivo, 7.5 C; 48 h
quantity-kind: LC50 at 48 h (µg/mL)
Give just the numeric value; µg/mL need not be written.

Problem: // lookup LC50 at 48 h for CCOP(=O)(OCC)OC(Cl)C(Cl)(Cl)Cl (centres unmarked)
Solution: 0.05

----------
# assay-protocol: in vivo
# condition-details: chinook salmon
# maps each entry to its LC50

CCOP(=O)(OCC)OC(Cl)=C(Cl)Cl [2,2,1-trichlorovinyl diethyl phosphate] : 0.018 to 0.02 µg/mL

Problem: GET /values?readout=LC50&item= `CCOP(=O)(OCC)OC(=C(Cl)Cl)P(=O)(OCC)OCC`
Solution: 0.018 to 0.02 µg/mL

----------
# assay-protocol: Static bioassay, lethal concentration to Kamloops trout
# Assay type: in vivo, Kamloops (an adfluvial rainbow trout)
# condition-details: kamloops trout, in vivo, 10 C; 192 h; read-out: LC50
quantity-kind: LC50 at 192 h (µg/mL)
Write the value in µg/mL as a bare number.

Problem: Given the entry CCOP(=O)(OC=C(Cl)Cl)OCC [2,2-dichlorovinyl diethyl phosphate] , report its measured LC50 at 192 h.
Solution: 2

----------
# assay-protocol: in vivo
# condition-details: chinook salmon
quantity-kind: LC50 at 192 h (µg/mL)
Return type: number; implicit unit µg/mL.

CCOP(=O)(OCC)OC(Cl)C(Cl)(Cl)Cl (centres unmarked) : 0.025

Problem: Item under review: CCOP(=O)(OC=C(Cl)Cl)OCC [2,2-dichlorovinyl diethyl phosphate] . Reported LC50 at 192 h?
Solution: 5
